Tested on: nitric oxide production in RAW267.7 macrophages
Assay: Inhibition of nitric oxide production in LPS-activated macrophages (Griess reaction)
Format: cell-based, murine
Settings: Mus musculus, Macrophage; single substance; RAW267.7, LPS 1 μg/ml, 24 hours; read-out: IC50 Nitric Oxide
Procedure: The anti-inflammatory effects combinations of OH-tyrosol or oleuropein and representatives of other groups of natural substances (isoflavones, catechins, phtalides, hydroxylated biphenyls) were evaluated in activated macrophages by determining the inhibition of the synthesis of nitric oxide and/or pro-inflammatory prostaglandins (PG). […]
The following compounds are shown together with reported IC50 values.
Supply the numeric figure in µM, leaving out any unit text.

Look over these answered cases.
O=c1c(-c2ccc(O)cc2)coc2cc(O)cc(O)c12 [Genistein, 4′,5,7-trihydroxyisoflavone]: 37
Oc1ccc(/C=C/c2cc(O)cc(O)c2)cc1 [Resveratrol, (trans)-resveratrol]: 31

Problem: Using the record for C/C=C1/[C@H](O[C@@H]2O[C@H](CO)[C@@H](O)[C@H](O)[C@H]2O)OC=C(C(=O)OC)[C@H]1CC(=O)OCCc1ccc(O)c(O)c1 [Oleuropein, oleuropein] , state its measured IC50.
Result: 52

Recorded values, source patent US8841264B2.
